- Target Desc: human complement protein C3 (human) (UniProt P01024)
- Sequence (P01024 23-667, chain 1 of 2): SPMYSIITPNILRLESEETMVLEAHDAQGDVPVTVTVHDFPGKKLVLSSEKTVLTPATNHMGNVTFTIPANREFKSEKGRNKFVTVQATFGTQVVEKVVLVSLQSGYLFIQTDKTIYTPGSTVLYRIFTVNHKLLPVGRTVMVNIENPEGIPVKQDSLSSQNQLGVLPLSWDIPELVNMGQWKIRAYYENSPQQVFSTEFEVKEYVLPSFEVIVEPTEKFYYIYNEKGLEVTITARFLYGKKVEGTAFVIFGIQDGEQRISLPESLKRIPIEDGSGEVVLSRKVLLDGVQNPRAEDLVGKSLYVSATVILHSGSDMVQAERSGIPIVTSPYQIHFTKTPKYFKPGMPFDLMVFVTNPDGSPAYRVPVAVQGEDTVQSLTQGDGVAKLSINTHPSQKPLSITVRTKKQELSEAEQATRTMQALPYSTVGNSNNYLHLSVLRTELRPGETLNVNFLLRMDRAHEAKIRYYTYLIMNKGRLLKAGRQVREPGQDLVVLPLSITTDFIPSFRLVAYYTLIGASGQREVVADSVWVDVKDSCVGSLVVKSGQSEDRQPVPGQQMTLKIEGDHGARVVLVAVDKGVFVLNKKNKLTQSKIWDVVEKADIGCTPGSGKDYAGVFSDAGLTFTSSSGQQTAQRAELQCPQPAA
- Sequence (P01024 672-1663, chain 2 of 2): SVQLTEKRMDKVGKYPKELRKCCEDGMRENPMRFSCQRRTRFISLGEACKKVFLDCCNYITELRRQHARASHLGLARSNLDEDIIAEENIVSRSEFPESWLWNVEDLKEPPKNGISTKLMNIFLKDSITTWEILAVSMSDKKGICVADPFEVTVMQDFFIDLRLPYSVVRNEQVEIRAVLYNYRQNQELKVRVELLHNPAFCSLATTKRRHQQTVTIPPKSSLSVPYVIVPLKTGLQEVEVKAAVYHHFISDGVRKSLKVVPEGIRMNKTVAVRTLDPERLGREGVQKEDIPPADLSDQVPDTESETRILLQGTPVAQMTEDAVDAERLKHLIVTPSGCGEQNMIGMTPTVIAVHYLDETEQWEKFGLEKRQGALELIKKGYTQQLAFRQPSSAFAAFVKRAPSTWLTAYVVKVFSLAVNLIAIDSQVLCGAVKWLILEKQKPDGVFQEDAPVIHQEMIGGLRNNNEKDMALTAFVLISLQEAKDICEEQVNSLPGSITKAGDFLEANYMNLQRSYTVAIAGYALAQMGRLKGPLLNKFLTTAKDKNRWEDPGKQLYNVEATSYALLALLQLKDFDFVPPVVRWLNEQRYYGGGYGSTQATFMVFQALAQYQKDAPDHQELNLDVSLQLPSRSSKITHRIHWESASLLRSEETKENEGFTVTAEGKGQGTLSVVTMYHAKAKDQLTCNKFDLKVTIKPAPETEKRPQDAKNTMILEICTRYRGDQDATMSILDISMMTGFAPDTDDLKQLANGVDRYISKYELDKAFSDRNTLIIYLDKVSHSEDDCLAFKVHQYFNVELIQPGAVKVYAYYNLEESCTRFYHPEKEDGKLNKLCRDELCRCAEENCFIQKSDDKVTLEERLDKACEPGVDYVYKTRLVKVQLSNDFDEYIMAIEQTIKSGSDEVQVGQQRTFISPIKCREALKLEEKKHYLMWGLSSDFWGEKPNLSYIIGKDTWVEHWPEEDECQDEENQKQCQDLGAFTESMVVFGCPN
- Procedure Text: cell-based or functional assay
Readout: EC50 (nM), cleavage of purified hC3 in vitro
Give bare numbers, in nM.

Q38H/I41S/D60bT/F60eS/Y60gW/D96F/F97Y/ins97aD/T98G/F99L/C122S/G151H/Q175L/Q192D (enzyme) VVGGTDADEGEWPWQVSLHALGHGHSCGASLISPNWLVSAAHCYIDTRGSRWSDPTQWTAFLGLHDQSQRSAPGVQERRLKRIISHPFFNFYDGLDYDIALLELEKPAEYSSMVRPISLPDASHVFPAGKAIWVTGWGHTQYGGTHALILQKGEIRVINQTTCENLLPQLITPRMMCVGFLSGGVDSCDGDSGGPLSSVEADGRIFQAGVVSWGDGCAQRNKPGVYTRLPLFRDWIKENTGV; 3.13

Data request: Please give the measured EC50 (nM), cleavage of purified hC3 in vitro for this binder: Q38H/I41A/F60eH/Y60gW/ins97aE/F97T/T98G/F99L/C122S/Q175L/Q192A (enzyme) VVGGTDADEGEWPWQVSLHALGHGHACGASLISPNWLVSAAHCYIDDRGHRWSDPTQWTAFLGLHDQSQRSAPGVQERRLKRIISHPFFNDTEGLDYDIALLELEKPAEYSSMVRPISLPDASHVFPAGKAIWVTGWGHTQYGGTGALILQKGEIRVINQTTCENLLPQLITPRMMCVGFLSGGVDSCAGDSGGPLSSVEADGRIFQAGVVSWGDGCAQRNKPGVYTRLPLFRDWIKENTGV
Data returned: 3.09
